Listed here are binders together with their documented Kd.
# subject_of_test: T1, extracellular signal-regulated kinase 2 (ERK2), unphosphorylated (UniProt P63086 1-358)
# T1 construct: ERK2 (extracellular signal-regulated kinase 2), unphosphorylated; also called MAPK; source: final SEC (Superdex 75 26/60)
# assay_protocol: ITC; PTPSLKIM, PTPSL, STEP or PSChimera titrated into ERK2 in the cell; 25 °C; 10 mM Tris pH 7.5, 150 mM NaCl, 0.1 mM EDTA, 0.5 mM TCEP; one-site model; triplicate
# condition_notes: both partners purified
quantity_kind: Kd (nM)

{"binder": "PS_(Chimera) (PTPSL residues 332-373 with STEP residues 257-539) (other, human | mouse, UniProt Q15256 332-373, looked up, PTPSL (PTPRR), residues 332-373 (KIM and KIS); human is stated for the PTPSL 332-655 construct; STEP (PTPN5), residues 257-539 (catalytic domain); mouse is stated for the STEP 213-539 construct; Chimera of PTPSL KIMKIS fused to STEPCAT; source: gene synthesized by DNA 2.0; final SEC) GLQERRGSNVSLTLDMSSLGNIEPFVSIPTPREKVAMEYLQSASRVLRAEELHEKALDPFLLQAEFFEIPMNFVDPKEYDIPGLVRKNRYKTILPNPHSRVRLTSPDPEDPLSSYINANYIRGYSGEEKVYIATQGPIVSTVADFWRMVWQERTPIIVMITNIEEMNEKCTEYWPEEQVVHDGVEITVQKVIHTEDYRLRLISLRRGTEERSLKHYWFTSWPDQKTPDRAPPLLHLVREVEEAAQQEGPHCSPIIVHCSAGIGRTGCFIATSICCQQLRREGVVDILKTTCQLRQDRGGMIQTCEQYQFVHHAMSLYEKQLSLQS", "test_result": 47}
{"binder": "STEP (residues 213-539, mouse) (domain or fragment, UniProt P54830 213-539, looked up, STEP (PTPN5, striatal enriched protein tyrosine phosphatase), mouse, residues 213-539 (KIM, KIS and catalytic domain); The results loosely call this construct 'full-length STEP'; the construct is residues 213-539; also called STEP_(213-539); PTPN5; source: final SEC) MGLQERRGSNVSLTLDMCTPGCNEEGFGYLVSPREESAHEYLLSASRVLRAEELHEKALDPFLLQAEFFEIPMNFVDPKEYDIPGLVRKNRYKTILPNPHSRVRLTSPDPEDPLSSYINANYIRGYSGEEKVYIATQGPIVSTVADFWRMVWQERTPIIVMITNIEEMNEKCTEYWPEEQVVHDGVEITVQKVIHTEDYRLRLISLRRGTEERSLKHYWFTSWPDQKTPDRAPPLLHLVREVEEAAQQEGPHCSPIIVHCSAGIGRTGCFIATSICCQQLRREGVVDILKTTCQLRQDRGGMIQTCEQYQFVHHAMSLYEKQLSLQS", "test_result": 48}
{"binder": "PTPSL (residues 332-655, human) (domain or fragment, UniProt Q15256 332-655, looked up, PTPSL/PTPBR7 (PTPRR, PTP STEP-like), human, residues 332-655 (KIM, KIS and catalytic domain); The results loosely call this construct 'full-length PTPSL'; the construct is residues 332-655; also called PTPBR7; PTPRR; source: final SEC) GLQERRGSNVSLTLDMSSLGNIEPFVSIPTPREKVAMEYLQSASRILTRSQLRDVVASSHLLQSEFMEIPMNFVDPKEIDIPRHGTKNRYKTILPNPLSRVCLRPKNVTDSLSTYINANYIRGYSGKEKAFIATQGPMINTVDDFWQMVWQEDSPVIVMITKLKEKNEKCVLYWPEKRGIYGKVEVLVISVNECDNYTIRNLVLKQGSHTQHVKHYWYTSWPDHKTPDSAQPLLQLMLDVEEDRLASQGRGPVVVHCSAGIGRTGCFIATSIGCQQLKEEGVVDALSIVCQLRMDRGGMVQTSEQYEFVHHALCLYESRLSAET", "test_result": 108}
{"binder": "IGLQERRGSNVSLTLDMS (peptide, UniProt Q15256 331-348, looked up, PTPSL/PTPBR7 (PTPRR, PTP STEP-like), residues 331-348 (KIM); human is stated for the PTPSL 332-655 construct; source: synthetic peptide (Biosynthesis, Inc.), HPLC purified, >98% purity) [PTPSLKIM peptide (PTPSL residues 331-348)]", "test_result": 463}
